assay: Quantitative High-Throughput drug screen in 47 multiple myeloma cell lines against the NCATS MIPE library collection: JJN3_DSMZ cell viability assay (AID 1918966; further: nearly all actives have a fitted effect of over 50% in size; further: potency means the concentration at half of the fitted maximal effect); conditions: JJN3 myeloma cells viability, CellTiter-Glo ATP, 48 h; series mostly up to 45.8 µM
Records with an inconclusive call do not appear. The source made the active and inactive calls. The call rests on the fitted dose curve; in most records, active means well fitted cell-killing curve with a large enough effect; inconclusive means small, poorly fitted or top-dose-only effect, or effect the other way; inactive means no such curve, though single readings can be large or run the other way. Non-standard residues stand in square brackets, D forms with d. Residues, ends and D or L forms follow the SMILES beside them. *: point of attachment. Sta = CC(C)C[C@H](N)[C@@H](O)CC(=O)O; Isovaleryl = CC(C)CC(=O)*
observed.property: Potency

Answered examples (5):
1) Cc1cc(Cl)ccc1OCCCC(=O)NO :: 0.372 µM (active)
2) CN(C)c1ccc(O)c2c1C[C@H]1C[C@H]3[C@H](N(C)C)C(=O)C(C(N)=O)=C(O)[C@@]3(O)C(=O)C1=C2O :: 20.9 µM (active)
3) CC(S)C(=O)NCC(=O)O (stereo not drawn) :: inactive
4) Cc1cccc(CN2CCN(C(c3ccccc3)c3ccc(Cl)cc3)CC2)c1 (stereo not drawn) :: 23.5 µM (active)
5) O=c1cc(N2CCOCC2)oc2c(-c3ccccc3)cccc12 :: 16.6 µM (active)

## Input Quick one: Potency of CC(C)CC(=O)N[C@H](C(=O)N[C@H](C(=O)N[C@@H](CC(C)C)[C@@H](O)CC(=O)N[C@@H](C)C(=O)N[C@@H](CC(C)C)[C@@H](O)CC(=O)O)C(C)C)C(C)C (Isovaleryl-VV[Sta]A[Sta]-OH) ?
## Output inactive

## Input Repeat with "CCN(CC)C(=S)SSC(=S)N(CC)CC"
## Output 0.0166 µM (active)

## Input Moving on to "N[C@@H](Cc1cc(I)c(Oc2cc(I)c(O)c(I)c2)c(I)c1)C(=O)O"
## Output inactive

## Input Param item: "CC(C)C[C@H](NC(=O)[C@H](Cc1ccccc1)NC(=O)c1cnccn1)B(O)O"
## Output 0.0166 µM (active)

## Input Repeat for the following compound: "Nc1ccc(S(N)(=O)=O)cc1"
## Output inactive

The measurements presented in this section are drawn from PubChem BioAssay (NCATS).
